Here, each record is paired with measured growth data.
tested on: NCI-H322M lung; assay: NCI-60 one-dose screen, 48 h (100 = growth as untreated, 0 = no growth, -100 = all killed); conditions: 10 µM
About 83,000 compounds went through this panel and 20% of them were active in at least one assay; those are over-represented in the sample as a whole.
readout: growth (%)

1) COc1ccc(/C=C/C(C)=N/OCC(=O)O)cc1 = 106
2) CC(C)(C)c1ccc(N2CSC(=S)N(c3ccc(C(C)(C)C)cc3)C2)cc1 = 86.7
3) C#Cc1ccc(-n2c(/C=C/c3ccc4ccccc4c3)nc3ncccc3c2=O)cc1 = 71.9
4) COc1cc(C(=C2O[C@@H]([C@H]3COC(C)(C)O3)[C@H]3OC(C)(C)O[C@@H]23)c2cc(OC)c(OC)c(OC)c2)cc(OC)c1OC = 103
5) CCCCCCCC(C)NCCO (stereo unspecified) = 88.9
6) N#CC1=C(Nc2ccccc2Cl)SC(c2ccccc2O)NC1=O (stereo unspecified) = 114
7) COc1ccc(OC)c(/C=C/c2nnc(Nc3ccc(Cl)cc3)o2)c1 = 58.6
8) COc1ccc(/C=C2/CN(CCC#N)C/C(=C\c3ccc(OC)cc3)C2=O)cc1 = 76
9) COc1cc2cc3c(nc2cc1OC)CCN3Cc1ccc(NC(=O)Nc2ccc(F)cc2F)cc1 = 84.8
10) O=C1/C(=C\c2ccc(Cl)cc2)CN(C(=O)c2ccccc2)C/C1=C\c1ccc(Cl)cc1 = 74.5
11) CS(=O)(=O)Nc1ccc(Nc2c3ccccc3nc3cc([N+](=O)[O-])ccc23)cc1 = 62.6
12) CCN(CC)CCSCCN(CC)CC = 109
13) C#Cc1ccc(-n2c(/C=C/c3cc(OC)cc(OC)c3)nc3ncccc3c2=O)cc1 = 72.5
14) O=C(N/N=C/c1ccccc1)C(Oc1ccccc1)c1ccccc1 (stereo unspecified) = 94.2
15) CCN1CCN(c2nc3ccccc3c3c(=O)c4ccccc4sc23)CC1 = 68.4
16) O=C(/C(=C/c1ccccc1)CN1CCCCC1)c1ccccc1 = 47.1
17) O=[P@@]1(c2ccccc2)O[C@H](COCc2ccccc2)[C@@H](OCc2ccccc2)[C@H](OCc2ccccc2)[C@H]1O = 86.9
18) Cc1nc2oc3ccccc3c(=O)c2cc1C(=O)NCc1ccccc1 = 76.2
19) Cc1ccc(Nc2nnc(-c3cc(-c4ccncc4)n(-c4ccccc4)n3)s2)cc1 = 98.7
20) Oc1[nH]c2ccc(Cl)cc2c1/C=c1/ccc2c(c1)N=C(c1cccs1)N=2 = 78.4
21) O=C1/C(=C\c2ccc(F)cc2)CN(C(=O)c2ccccc2)C/C1=C\c1ccc(F)cc1 = 73.6
